Data credit: ChEMBL document CHEMBL2150878

Experiment description: Dissociation constant, pKa of the compound
Type: physicochemical
Property measured: pKa

Item under review: CC#Cc1cncc(-c2cc(Cl)c([C@]3(C)CC(=O)N(C)C(=N)N3)s2)c1 . Reported pKa? 7.5

----------
Experiment description: Intrinsic clearance in rat hepatocytes assessed per 10^6 cells at 1 uM up to 180 mins
Format: ADME, cell-based, Hepatocyte
Applied conditions: read-out: CLH
Property measured: hepatocyte CLint at 1 µM (µL/min/1e6 cells)
Response body: numeric value in µL/min/1e6 cells, unit text excluded.

Item under review: CC#Cc1cncc(-c2cc(Cl)c([C@]3(C)CC(=O)N(C)C(=N)N3)s2)c1 . Reported hepatocyte CLint at 1 µM? 4.9
